# Test system: HOP-92
# test-protocol: NCI tumour cell line growth inhibition, 48 h
Activity calls are given as the source filed them. No stated cut-off is given here; in the data, active = GI50 up to about 1.1 µM and inactive = higher.
Reported GI50 values for a set of compounds
measurement-label: GI50

| compound | reading |
| --- | --- |
| CC1C2CC(CC(=O)N2)C1(C)C (stereo unspecified) | > 100 µM (inactive) |
| CCOC(=O)C1S/C(=N\c2ccc(C)c(C)c2)N=C1C (stereo unspecified) | > 100 µM (inactive) |
| C=CCN(CC=C)CC(C(C)=O)C(c1ccccc1)c1c(O)c2ccccc2oc1=O (stereo unspecified) | > 100 µM (inactive) |
| COc1ccc(CCNCc2cccc(OC)c2OC)cc1OC | 38.1 µM (inactive) |
| O=[N+]([O-])/C=C1\COCc2cc3c(cc21)OCO3 | 30.7 µM (inactive) |
| CCN1C/C(=C\c2ccc(Cl)cc2)c2[nH]c(=O)c(C#N)c(-c3ccc(Cl)cc3)c2C1 | > 100 µM (inactive) |

Data origin, for the record: ChEMBL document CHEMBL1201862
